Biological target: T1, mDOR-1 (Mus musculus, UniProt P32300)
T1 chain: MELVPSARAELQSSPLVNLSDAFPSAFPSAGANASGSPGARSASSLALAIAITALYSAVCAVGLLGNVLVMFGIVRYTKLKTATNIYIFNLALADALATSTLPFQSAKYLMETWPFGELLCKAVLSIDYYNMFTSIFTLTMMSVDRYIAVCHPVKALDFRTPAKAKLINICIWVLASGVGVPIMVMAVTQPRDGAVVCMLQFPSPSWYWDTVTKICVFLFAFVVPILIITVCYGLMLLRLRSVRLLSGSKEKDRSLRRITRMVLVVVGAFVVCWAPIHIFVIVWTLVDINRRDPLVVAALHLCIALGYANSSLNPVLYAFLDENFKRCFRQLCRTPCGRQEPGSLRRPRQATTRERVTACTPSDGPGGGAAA
Assay: 125I-IBNtxA competition, CHO membranes
pKi: −log10 of the molar value. Non-standard residues stand in square brackets, D forms with d. No end group written: not given here. *: point of attachment. NMeF = CN[C@@H](Cc1ccccc1)C(=O)O; NHCH2CH2OH = OCCN*
Parameter: pKi

> print(dat)
                             binder  observed.value
1  Y[dA]G[NMeF][NHCH2CH2OH] [DAMGO]          < 6.30
